# Target of assay: BRM (Homo sapiens)
# Procedure summary: ATPase catalytic activity assay (ADP-Glo), BRM
# Condition description: BRM ATPase: IC50 (uM), 30 nM BRM, 400 μM ATP
Listed compounds paired with reported IC50

Worked cases, IC50 given:
Compound: C[C@@]1(C#N)COCc2ccc(C(=O)NCc3cc(N4CCC5CCCCC5C4)ccn3)cc21 (stereo partly shown) [Compound 57]
IC50: 0.1 to 0.5 µM

Compound: C[C@@]1(C#N)COCc2ccc(C(=O)NCc3cc4nc(-c5cncc(N6CCC6)n5)sc4cn3)cc21 [Compound 353]
IC50: < 0.1 µM

Compound: C[C@@]1(C#N)COCc2ccc(C(=O)NCc3cc4c(cn3)CCN(c3ccnc(N5CCOCC5)n3)C4)cc21 [Compound 330]
IC50: 0.1 to 0.5 µM

Compound: C[C@@]1(C#N)COCc2ccc(C(=O)NCc3cc([C@H]4C[C@@H](c5cccc(N6CCOCC6)n5)C4)ccn3)cc21 [Compound 80]
IC50: 0.1 to 0.5 µM

Compound: COC[C@H](NC(=O)c1ccc2c(c1)[C@](C)(C#N)COC2)c1cc(/C=C/c2ccccc2)ccn1 [Compound 41]
IC50: 0.5 to 1 µM

Query string: I have this compound here, COCCC(=O)N1CCN(c2cccc(-c3ccc4cnc(CNC(=O)c5ccc6c(c5)[C@](C)(C#N)COC6)cc4n3)n2)CC1 [Compound 288] , and I need its recorded IC50.
Result string: < 0.1 µM

Query string: Next: COC(=O)c1cccc(C#Cc2ccnc(CNC(=O)c3ccc4c(c3)[C@](C)(C#N)CO4)c2)c1 [Compound 37]
Result string: > 1 µM

* * *

# Target of assay: BRG-1 (Homo sapiens)
# Sequence (P51532 whole entry): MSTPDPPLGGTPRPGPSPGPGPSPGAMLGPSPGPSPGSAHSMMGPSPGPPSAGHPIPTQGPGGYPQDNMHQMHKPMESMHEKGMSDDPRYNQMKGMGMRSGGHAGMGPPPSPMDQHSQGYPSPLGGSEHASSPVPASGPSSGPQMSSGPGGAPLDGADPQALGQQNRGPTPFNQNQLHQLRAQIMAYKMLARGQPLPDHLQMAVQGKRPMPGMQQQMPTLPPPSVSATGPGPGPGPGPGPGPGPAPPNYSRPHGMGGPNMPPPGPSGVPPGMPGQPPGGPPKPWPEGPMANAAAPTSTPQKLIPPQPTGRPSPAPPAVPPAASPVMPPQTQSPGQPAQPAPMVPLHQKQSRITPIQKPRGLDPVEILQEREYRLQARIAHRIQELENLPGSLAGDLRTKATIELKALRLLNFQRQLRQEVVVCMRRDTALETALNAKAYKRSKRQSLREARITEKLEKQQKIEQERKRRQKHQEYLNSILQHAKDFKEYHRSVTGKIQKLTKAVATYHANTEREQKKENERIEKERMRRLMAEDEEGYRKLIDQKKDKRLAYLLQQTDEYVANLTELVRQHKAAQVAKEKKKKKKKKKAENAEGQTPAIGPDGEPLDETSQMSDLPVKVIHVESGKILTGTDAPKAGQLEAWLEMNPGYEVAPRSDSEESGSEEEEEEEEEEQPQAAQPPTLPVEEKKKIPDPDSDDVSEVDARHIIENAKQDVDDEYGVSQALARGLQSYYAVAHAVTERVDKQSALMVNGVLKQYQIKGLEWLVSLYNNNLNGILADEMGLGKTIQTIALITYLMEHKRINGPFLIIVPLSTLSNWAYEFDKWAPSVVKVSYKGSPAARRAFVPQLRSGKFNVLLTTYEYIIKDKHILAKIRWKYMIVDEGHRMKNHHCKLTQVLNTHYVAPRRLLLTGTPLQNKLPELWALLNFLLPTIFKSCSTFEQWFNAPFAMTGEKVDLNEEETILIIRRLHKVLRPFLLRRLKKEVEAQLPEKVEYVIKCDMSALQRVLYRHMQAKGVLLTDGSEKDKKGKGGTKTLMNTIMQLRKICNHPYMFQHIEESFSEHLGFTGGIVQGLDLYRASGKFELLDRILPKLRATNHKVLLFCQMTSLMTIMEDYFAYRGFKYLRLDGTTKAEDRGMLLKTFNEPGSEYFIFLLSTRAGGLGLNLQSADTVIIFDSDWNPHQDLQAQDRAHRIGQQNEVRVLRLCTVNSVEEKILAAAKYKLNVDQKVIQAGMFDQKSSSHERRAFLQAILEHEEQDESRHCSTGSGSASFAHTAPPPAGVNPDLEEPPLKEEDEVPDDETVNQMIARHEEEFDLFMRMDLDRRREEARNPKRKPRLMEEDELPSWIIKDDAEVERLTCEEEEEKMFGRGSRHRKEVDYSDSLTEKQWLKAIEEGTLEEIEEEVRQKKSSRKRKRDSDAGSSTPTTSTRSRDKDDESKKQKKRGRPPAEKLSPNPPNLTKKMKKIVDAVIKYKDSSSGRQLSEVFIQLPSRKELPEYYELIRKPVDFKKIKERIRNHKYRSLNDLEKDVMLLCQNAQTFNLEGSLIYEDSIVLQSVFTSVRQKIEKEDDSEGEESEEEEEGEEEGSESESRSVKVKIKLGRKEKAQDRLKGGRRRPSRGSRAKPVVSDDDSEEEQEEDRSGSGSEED
# Procedure summary: ATPase catalytic activity assay (ADP-Glo), BRG-1
Quantity name: IC50

Query string: I have this molecule here, C[C@@]1(C#N)COCc2ccc(C(=O)NCc3cc4cc(-c5ccnc(N6CCC6)n5)ccc4nn3)cc21 , and I need its recorded IC50.
Result string: 0.1 to 0.5 µM

Query string: Next: C[C@@]1(F)COCc2ccc(C(=O)NCc3cc4nc(-c5cncc(N6CCOCC6)n5)ccc4cn3)cc21
Result string: 0.1 to 0.5 µM

Query string: Next: C[C@@]1(C#N)COCc2ccc(C(=O)NCc3cc(N4CCN(c5ccccc5)CC4)ccn3)cc21
Result string: 0.5 to 1 µM

Query string: Next: Cn1ccc2ccc(-c3ccc4cnc(CNC(=O)c5ccc6c(c5)[C@](C)(C#N)COC6)cc4n3)cc2c1=O
Result string: 0.1 to 0.5 µM

Query string: Next: C[C@@]1(F)COCc2ncc(C(=O)NCc3cc4nc(-c5ccccc5)ccc4cn3)cc21
Result string: 0.5 to 1 µM

Query string: Next: C[C@@]1(C#N)CCNc2ccc(C(=O)NCc3cc4nc(-c5ccccc5)ccc4cn3)cc21
Result string: > 1 µM

Query string: Next: C[C@@]1(C#N)COCc2ccc(C(=O)NCc3cc4nc(-c5cncc(N6CC(F)(F)C6)n5)ccc4cn3)cc21
Result string: 0.1 to 0.5 µM

Query string: Next: COc1cncc(-c2ccc3nnc(CNC(=O)c4ccc5c(c4)[C@](C)(C#N)COC5)cc3c2)n1
Result string: 0.1 to 0.5 µM

* * *

# Target of assay: BRM (Homo sapiens, UniProt P51531)
# Sequence (P51531 whole entry): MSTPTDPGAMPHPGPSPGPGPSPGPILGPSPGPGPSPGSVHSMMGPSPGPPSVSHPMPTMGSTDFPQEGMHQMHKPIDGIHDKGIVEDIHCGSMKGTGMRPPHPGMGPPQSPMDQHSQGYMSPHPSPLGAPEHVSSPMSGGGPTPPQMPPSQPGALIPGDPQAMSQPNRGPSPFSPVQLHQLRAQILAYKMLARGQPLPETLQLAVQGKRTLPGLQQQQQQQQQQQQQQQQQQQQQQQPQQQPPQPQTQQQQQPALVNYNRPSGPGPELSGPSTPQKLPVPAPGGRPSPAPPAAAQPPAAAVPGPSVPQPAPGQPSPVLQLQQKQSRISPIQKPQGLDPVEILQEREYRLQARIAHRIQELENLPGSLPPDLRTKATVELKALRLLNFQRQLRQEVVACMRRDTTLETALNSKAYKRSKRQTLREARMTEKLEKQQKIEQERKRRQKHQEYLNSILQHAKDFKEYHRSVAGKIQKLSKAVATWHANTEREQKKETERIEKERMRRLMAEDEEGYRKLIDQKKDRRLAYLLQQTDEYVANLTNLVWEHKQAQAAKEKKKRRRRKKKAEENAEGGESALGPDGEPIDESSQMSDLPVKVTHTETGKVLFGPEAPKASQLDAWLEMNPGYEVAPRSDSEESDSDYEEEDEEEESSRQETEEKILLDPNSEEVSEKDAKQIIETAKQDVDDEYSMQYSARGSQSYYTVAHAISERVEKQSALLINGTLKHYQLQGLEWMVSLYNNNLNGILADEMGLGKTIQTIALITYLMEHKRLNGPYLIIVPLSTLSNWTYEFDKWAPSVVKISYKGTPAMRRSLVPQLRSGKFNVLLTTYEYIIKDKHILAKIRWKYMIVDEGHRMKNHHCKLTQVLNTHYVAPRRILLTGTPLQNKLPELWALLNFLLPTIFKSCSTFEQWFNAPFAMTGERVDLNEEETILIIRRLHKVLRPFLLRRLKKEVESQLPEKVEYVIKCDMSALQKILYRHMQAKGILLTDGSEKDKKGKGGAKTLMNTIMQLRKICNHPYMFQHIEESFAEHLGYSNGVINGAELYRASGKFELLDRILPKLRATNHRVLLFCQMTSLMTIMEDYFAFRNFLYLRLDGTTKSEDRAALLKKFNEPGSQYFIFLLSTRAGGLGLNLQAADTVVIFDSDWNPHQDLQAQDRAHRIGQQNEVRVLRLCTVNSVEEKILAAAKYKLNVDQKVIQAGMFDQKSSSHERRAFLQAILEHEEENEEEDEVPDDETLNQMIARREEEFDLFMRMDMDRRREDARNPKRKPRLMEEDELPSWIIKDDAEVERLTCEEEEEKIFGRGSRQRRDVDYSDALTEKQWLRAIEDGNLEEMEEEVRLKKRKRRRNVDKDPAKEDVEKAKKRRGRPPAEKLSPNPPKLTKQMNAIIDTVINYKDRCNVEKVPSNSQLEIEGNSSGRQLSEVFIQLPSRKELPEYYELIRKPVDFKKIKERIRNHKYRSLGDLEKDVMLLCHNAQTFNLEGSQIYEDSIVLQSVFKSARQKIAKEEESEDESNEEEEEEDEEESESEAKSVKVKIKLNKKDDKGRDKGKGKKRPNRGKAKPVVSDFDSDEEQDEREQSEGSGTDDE
# Procedure summary: ATPase catalytic activity assay (ADP-Glo), BRM
# Condition description: 30 nM BRM, 400 μM ATP
Quantity name: BRM Max % Inhibition (%)
Use % as the unit, but write only the number.

Worked cases, BRM Max % Inhibition given:
Compound: C[C@@]1(C#N)COCc2ccc(C(=O)NCc3cc4nc(-c5ccnc(N6CCC6)n5)sc4cn3)cc21 [Compound 348]
BRM Max % Inhibition (%): 99
--
Compound: C[C@@]1(C#N)COCc2ccc(C(=O)NCc3cc4nc(-c5ccn6ncc(C(F)F)c6n5)ccc4cn3)cc21 [Compound 309]
BRM Max % Inhibition (%): 97
--
Compound: COc1nn(C)cc1-c1ccc2cnc(CNC(=O)c3cc(F)c4c(c3)[C@](C)(F)COC4)cc2n1 [Compound 333]
BRM Max % Inhibition (%): 100
--
Compound: C[C@@]1(C#N)COCc2ccc(C(=O)NCc3cc4cc(-c5nccc(N6CCC6)n5)ccc4cn3)cc21 [Compound 365]
BRM Max % Inhibition (%): 99

Query string: I have this compound here, C[C@@]1(C#N)COCc2ccc(C(=O)NCc3cc4c(cn3)CCN(c3cncc(C5CC5)n3)C4)cc21 [Compound 328] , and I need its recorded BRM Max % Inhibition.
Result string: 99

Query string: Next: C[C@@]1(CO)COCc2ccc(C(=O)NCc3cc4nc(-c5ccccc5)ccc4cn3)cc21 [Compound 109]
Result string: 75

Query string: Next: C[C@@]1(C#N)COCc2ccc(C(=O)NCc3nccc(N4CCc5ccccc5C4)c3F)cc21 [Compound 66]
Result string: 99
